From: ChEMBL document CHEMBL5058641

tested_target: Glucocorticoid receptor (Homo sapiens)
Sequence (P04150 whole entry): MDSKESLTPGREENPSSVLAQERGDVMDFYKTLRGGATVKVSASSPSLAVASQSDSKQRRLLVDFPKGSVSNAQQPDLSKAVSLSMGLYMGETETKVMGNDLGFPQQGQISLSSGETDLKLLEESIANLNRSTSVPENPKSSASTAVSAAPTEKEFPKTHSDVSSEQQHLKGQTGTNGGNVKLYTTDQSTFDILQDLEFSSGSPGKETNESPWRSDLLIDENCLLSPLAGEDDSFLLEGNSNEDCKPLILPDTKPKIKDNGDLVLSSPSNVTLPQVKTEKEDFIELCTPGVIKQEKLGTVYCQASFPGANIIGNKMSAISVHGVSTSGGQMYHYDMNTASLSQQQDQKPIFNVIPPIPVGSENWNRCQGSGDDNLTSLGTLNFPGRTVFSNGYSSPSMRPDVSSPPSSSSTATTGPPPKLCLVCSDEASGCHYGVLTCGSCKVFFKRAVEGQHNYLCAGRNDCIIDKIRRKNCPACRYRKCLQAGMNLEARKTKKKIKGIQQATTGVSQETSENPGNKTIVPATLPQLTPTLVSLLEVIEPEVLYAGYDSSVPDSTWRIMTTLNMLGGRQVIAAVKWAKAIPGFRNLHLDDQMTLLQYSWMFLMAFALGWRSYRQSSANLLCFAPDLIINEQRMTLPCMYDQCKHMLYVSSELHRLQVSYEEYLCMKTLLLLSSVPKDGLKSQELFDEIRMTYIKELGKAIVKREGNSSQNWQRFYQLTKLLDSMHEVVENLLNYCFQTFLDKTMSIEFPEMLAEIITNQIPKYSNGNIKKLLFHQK
procedure_details: GR Eurofins SafetyScan (Receptor)

| smiles_notation | EC50 |
| --- | --- |
| Cc1cn([C@H](C)CC#N)c(=O)c2cc(Cn3nc(C(F)F)cc3Cl)nn12 | > 10 µM |

* * *

tested_target: 5-hydroxytryptamine receptor 2B (Homo sapiens, UniProt P41595)
Sequence (P41595 whole entry): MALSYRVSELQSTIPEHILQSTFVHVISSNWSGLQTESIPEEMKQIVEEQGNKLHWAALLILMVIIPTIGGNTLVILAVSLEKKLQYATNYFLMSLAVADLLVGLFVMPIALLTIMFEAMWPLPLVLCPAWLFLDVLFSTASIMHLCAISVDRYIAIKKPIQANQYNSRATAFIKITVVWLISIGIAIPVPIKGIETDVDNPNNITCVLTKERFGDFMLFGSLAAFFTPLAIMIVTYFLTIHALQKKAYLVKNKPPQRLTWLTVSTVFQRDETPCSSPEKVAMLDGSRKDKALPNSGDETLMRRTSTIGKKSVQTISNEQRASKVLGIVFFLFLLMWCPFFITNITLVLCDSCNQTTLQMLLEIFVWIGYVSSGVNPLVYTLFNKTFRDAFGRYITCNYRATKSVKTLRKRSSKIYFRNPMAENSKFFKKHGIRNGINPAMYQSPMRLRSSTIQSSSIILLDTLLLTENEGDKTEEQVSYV
pIC50: −log10 of the molar value.

| smiles_notation | tested_target | pIC50 |
| --- | --- | --- |
| Cc1cn([C@H](C)CC#N)c(=O)c2cc(Cn3nc(C(F)F)cc3Cl)nn12 | 5-hydroxytryptamine receptor 2B (Homo sapiens, UniProt P41595) | < 5.00 |
